Values were extracted from the RepoRT retention time repository (doi:10.1016/j.chroma.2019.01.023).

- protocol.details: HILIC, Waters ACQUITY UPLC BEH Amide, 150 × 2.1 mm, 1.7 µm, 40 °C, 0.5 mL/min, estimated dead time 0.66 min; A: 5% water + 95% acetonitrile; B: 70% water + 30% acetonitrile + 10 mM ammonium formate, pH 6.5; gradient (min/%B) 0/0 2/0 20/70 23/70 24/0 31/0
- assay.conditions: stereoisomer not certain
property.measured: LC retention time (min)

INSERT INTO results (compound, property_measured, number) VALUES
  ('COC1OC(CO)C(O)C(O)C1O (configuration not stated) [METHYL GALACTOSIDE]', 'LC retention time', 4.01),
  ('OCCc1c[nH]c2ccccc12 [INDOLE-3-ETHANOL]', 'LC retention time', 0.83),
  ('NCCC(=O)O [BETA-ALANINE]', 'LC retention time', 10.4);

I: NC(=O)CCC(N)C(=O)O (configuration not stated) [GLUTAMINE]
II: Nc1ccn(C2OC(CO)C(O)C2O)c(=O)n1 (configuration not stated) [CYTIDINE]
Which item exceeds the other in LC retention time, I or II ? Provide the label of your selected option as the answer.
I

P: CC(C)C(=O)O [ISOBUTYRATE]
Q: Cn1cnc2c1c(=O)[nH]c(=O)n2C [THEOBROMINE]
Could you tell me which of these two has the smaller LC retention time figure? First: P Second: Q Provide the label of your selected option as the answer.
Q
(Q: 1.32 min, P: 8.79 min)

a: CSCCC(N)C(=O)O (configuration not stated) [METHIONINE]
b: NC(CSCC(=O)O)C(=O)O (configuration not stated) [S-CARBOXYMETHYLCYSTEINE]
c: O=C(O)CCCCC1SCC2NC(=O)NC21 (configuration not stated) [BIOTIN]
d: c1ccc2ncccc2c1 [QUINOLINE]
Order these by LC retention time, descending, and give the full ranking. Enter labels, ranked according to the request.
a, c, b, d
(a: 8.53 min, c: 5.11 min, b: 2.47 min, d: 0.91 min)
